Tested on: SK-MEL-28 melanoma
Test: NCI-60 one-dose screen, 48 h (100 = growth as untreated, 0 = no growth, -100 = all killed)
Conditions: 10 µM unless noted
This is part of a sample that, as a whole, favours compounds with a hit. Of some 83,000 tested, about 20% had one in any assay.
readout: growth (%)

>>> df
                                smiles_text        assay_system  test_result
0  O=C1Nc2cc(-c3ccc(NS(=O)(=O)c4ccccc4)cc3)ccc2/C1=C/c1ccc[nH]1  SK-MEL-28 melanoma          108
1  CCCN1[C@@H]2CC[C@H]1/C(=C\c1ccc(OC)c(OC)c1)C(=O)/C2=C/c1ccc(OC)c(OC)c1  SK-MEL-28 melanoma         73.2
2  COc1ccc(C(=O)c2cc(C)c(OC)c(C)c2)c(OC)c1NC(C)=O  SK-MEL-28 melanoma         49.5
3  COc1cccc(-c2nc3occn3c2-c2ccnc(NCCNS(=O)(=O)c3cccc4ccccc34)n2)c1  SK-MEL-28 melanoma          115
4        NC(=NCCCOc1ccc(F)cc1)Nc1ccc(Cl)cc1  SK-MEL-28 melanoma         88.3
5  Cn1ccnc1C(=O)/C=C/c1ccc(CC(=O)Nc2ccc(Cl)cc2)cc1  SK-MEL-28 melanoma         70.9
6  Oc1cccc(CCc2ccc(Oc3cc(CCc4cccc(O)c4)cc(O)c3O)cc2)c1  SK-MEL-28 melanoma         88.6
7  O=C1Nc2cc(-c3cccc([N+](=O)[O-])c3)ccc2/C1=C/c1ccc[nH]1  SK-MEL-28 melanoma          106
8  O=C(Nc1ccc(-c2ccc3c(c2)NC(=O)/C3=C\c2ccc[nH]2)cc1)NC1CC1  SK-MEL-28 melanoma          111

====

Test system: CCRF-CEM leukemia
Assay: NCI-60 one-dose screen, 48 h
Conditions: 10 µM unless noted
Compounds without any hit were thinned out: in the full panel of roughly 83,000, 20% have a hit. Calls of active or inactive are those of the source. The calls were made as follows: active = growth percent below 10; inactive = the rest.
Classes used: 1 = active, -1 = inactive

In [3]: df
Out[3]:
                                   molecule       assay_system  assigned_label
0  CC(=O)OC[C@]12CC[C@@H](C(=O)CBr)[C@@H]1[C@H]1CC[C@@H]3[C@@]4(C)CC[C@H](OC(C)=O)C(C)(C)[C@@H]4CC[C@@]3(C)[C@]1(C)CC2  CCRF-CEM leukemia               1
1  CN(C)CC(O)c1ccc(/C=C/c2ccc(Cl)cc2)cc1 (centres undefined)  CCRF-CEM leukemia               1
2  N=C(N)c1ccc(OCCCCCCCCCCOc2ccc(C(=N)N)cc2)cc1  CCRF-CEM leukemia               1
3  COc1cc2c(c(O)c1Br)C(=O)c1c(O)cc(C[C@H](C)O)cc1[C@H]2[C@H]1c2cc(C[C@H](C)O)cc(O)c2C(=O)c2c1cc(OC)c(Br)c2O  CCRF-CEM leukemia              -1

====

System: K-562 leukemia
Assay: NCI-60 one-dose screen, 48 h
Details: 10 µM unless noted
The panel holds about 83,000 compounds, 20% with a hit somewhere; the sample as a whole holds those more often. Calls of active or inactive are those of the source. Rule for the calls: active = growth percent below 10; inactive = the rest.
Classes used: active, inactive

>>> df
                                smiles_text    assay_system  assigned_label
0  COc1cc2c(c(O)c1Br)C(=O)c1c(O)cc(C[C@H](C)O)cc1[C@H]2[C@H]1c2cc(C[C@H](C)O)cc(O)c2C(=O)c2c1cc(OC)c(Br)c2O  K-562 leukemia          active
1  O=C(CCN1CCCC1)Nc1ccc2c(Nc3ccc(Br)cc3)c3ccccc3nc2c1  K-562 leukemia          active
2  O=C1c2ccc3c4c(ccc(c24)C(=O)N1CCCNCc1ccccc1)C(=O)N(CCCNCc1ccccc1)C3=O  K-562 leukemia          active
3  C=CC(=O)N[C@@H](/C=C/C(=O)OCC)Cc1ccc(-c2cc(Cl)cc(Cl)c2)cc1  K-562 leukemia          active
4        COc1ccc(NC(N)=NCCCOc2ccc(F)cc2)cc1  K-562 leukemia        inactive

====

System: OVCAR-3 ovarian
Assay: NCI-60 one-dose screen, 48 h (100 = growth as untreated, 0 = no growth, -100 = all killed)
Conditions: 10 µM unless noted
This is part of a sample that, as a whole, favours compounds with a hit. Of some 83,000 tested, about 20% had one in any assay.
readout: growth (%)

compound	assay.system	readout	unit.label	test.result
O=S(=O)(NCCNc1nccc(-c2c(-c3cccc(F)c3)nc3sccn23)n1)c1ccc(Br)cc1	OVCAR-3 ovarian	growth	%	62.4
O=C(Cc1ccc(/C=C/C(=O)c2ncc[nH]2)cc1)Nc1ccc(Cl)cc1	OVCAR-3 ovarian	growth	%	-4.9
Oc1ccc(OCCOc2ccc(O)cc2)cc1	OVCAR-3 ovarian	growth	%	70.2
Cc1c2cc[nH]c(=O)c2c(C)c2c1[nH]c1cc(OCCN3CCN(C)CC3)ccc12	OVCAR-3 ovarian	growth	%	17.1
COc1cc2nc(-c3ccc(C(F)(F)F)cc3)cc(OCCCN3CCOCC3)c2cc1OC	OVCAR-3 ovarian	growth	%	61.6
O=C1Nc2cc(-c3cccc([N+](=O)[O-])c3)ccc2/C1=C/c1ccc[nH]1	OVCAR-3 ovarian	growth	%	70.6
O=C1c2cccc3c(-c4ccc5c(c4)ncn5C4CCCCC4)ccc(c23)C(=O)N1c1nc2ccccc2s1	OVCAR-3 ovarian	growth	%	89.8
Cc1ccc(NC(=O)Cc2ccc(/C=C/C(=O)c3ncc[nH]3)cc2)cc1	OVCAR-3 ovarian	growth	%	15.3
N/C(=N\C(N)=N\c1nc2ccccc2s1)c1cnccn1	OVCAR-3 ovarian	growth	%	3.95
COc1ccc(/C=C/c2nc(Nc3ccc(S(=O)(=O)Nc4nc(C)cc(C)n4)cc3)c3ccccc3n2)cc1	OVCAR-3 ovarian	growth	%	79.6
O=C(/C=C(/C=C/c1coc2ccccc12)OB(F)F)/C=C/c1coc2ccccc12	OVCAR-3 ovarian	growth	%	58.2
CCCCCCCCO/N=C\c1c2c(O)c3c(O)c(C)c4c(c3c1O)C(=O)C(C)(O/C=C\C(OC)C(C)C(OC(C)=O)C(C)C(O)C(C)C(O)C(C)/C=C\C=C(\C)C(=O)N2)O4 (stereo not drawn)	OVCAR-3 ovarian	growth	%	22.2
Cc1ccc(-n2c3c(c(-c4ccccc4)c2-c2ccccc2)C2=NCCN2C=N3)cc1	OVCAR-3 ovarian	growth	%	90.5
COc1cc2nc(-c3ccc(Cl)cc3)cc(OCCCN3CCCC3)c2cc1OC	OVCAR-3 ovarian	growth	%	74.4
COc1ccc2[nH]c(O)c(/C=c3/cc4c(c(-c5ccc(F)cc5)n3)=Nc3ccccc3-4)c2c1	OVCAR-3 ovarian	growth	%	94.7
O=C1Nc2ccc(F)cc2/C1=C\c1c(-c2ccccc2)nc2ccccn12	OVCAR-3 ovarian	growth	%	66.4
Cc1ccc(CNc2c3ccccc3nc3cc(NC(=O)CCN4CCCC4)ccc23)cc1	OVCAR-3 ovarian	growth	%	-73.3
CN1CCN(C(=O)[C@]23CCC(C)(C)C[C@H]2C2=CC[C@@H]4[C@@]5(C)C/C(=C/c6cccnc6)C(=O)C(C)(C)[C@@H]5CC[C@@]4(C)[C@]2(C)CC3)CC1	OVCAR-3 ovarian	growth	%	52.7

====

System: SN12C renal
Assay: NCI-60 one-dose screen, 48 h (100 = growth as untreated, 0 = no growth, -100 = all killed)
Details: 10 µM unless noted
Protocol: Growth inhibition of the SN12C human tumor cell line is measured as a screen for anti-cancer activity. Cells are grown in 96 well plates and exposed to the test compound for 48 hours. Compounds are tested at a single concentration, which is 10^-5 M for most compounds. The reported endpoint is percent growth (GI% or GIPRCNT), where numbers from 0 - 100% represent growth inhibition, and numbers from -100% - 0 represent cell death. For example, a value of 40 represents 60% growth inhibition. […]
This is part of a sample that, as a whole, favours compounds with a hit. Of some 83,000 tested, about 20% had one in any assay.
readout: growth (%)

In [3]: df
Out[3]:
                                smiles_text  unit_label  test_result
0  O=C(Nc1cccc(C2=NCCN2)c1)c1ccc(-c2ccc(C(=O)Nc3cccc(C4=NCCN4)c3)cc2)cc1           %         61.7
1  Cc1cc(C(=O)/C=C/c2ccc[nH]2)ccc1-n1ccc(C(F)(F)F)n1           %         63.4
2  COc1ccc(NC(=O)c2cc(NCc3cc(O)ccc3O)ccc2O)cc1           %         85.8
3  COc1cc(NC(=O)CSc2nc3ccc(C)cc3c(=O)n2Cc2ccccc2)cc(OC)c1OC           %         83.5
4  CC(=O)Nc1ccc(-c2ccc3c(c2)NC(=O)/C3=C\c2ccc[nH]2)cc1           %         94.6
